The values you see were collected from the supplement of paper PMC11208160.

protocolDescription: recombinant barcode read abundance after kanamycin selection (control-corrected) (log10(CPM+1)); higher = more efficient recombination; sequences stand for … in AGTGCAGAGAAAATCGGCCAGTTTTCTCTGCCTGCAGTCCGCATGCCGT…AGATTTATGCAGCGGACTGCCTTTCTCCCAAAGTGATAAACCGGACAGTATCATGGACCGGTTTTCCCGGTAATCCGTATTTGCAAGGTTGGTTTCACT; site = the 11-nt target
measurementType: recombinant barcode read abundance (log10)

>>> valuemeasured("GTCCCCTCTTGGGTTCTAACCTGTTGCCT (site GTCCCCTCTAG)")
1.74
>>> valuemeasured("TCTTATACTTGGGTTCTAACCTGTTGCAT (site TCTTATACTAC)")
0.0107
>>> valuemeasured("CAATCCTCTTGGGTTCTAACCTGTTGCTT (site CAATCCTCTAA)")
0.664
>>> valuemeasured("GGTAAATCTTGGGTTCTAACCTGTTGCCT (site GGTAAGTCTAG)")
0.359
>>> valuemeasured("ACAGCCGCTTGGGTTCTAACCTGTTGCCT (site ACAGCCGCTAG)")
1.46
>>> valuemeasured("GTTTATACTTGGGTTCTAACCTGTTGCCA (site GTTTATACTTG)")
0.41
>>> valuemeasured("TGGGCGGCTTGGGTTCTAACCTGTTGCCT (site TGGGCGGCTAG)")
0.411
>>> valuemeasured("GGATCCACTTGGGTTCTAACCTGTTGCCA (site GGATCCACTTG)")
0.117
>>> valuemeasured("GCACGCTCTTGGGTTCTAACCTGTTGCCT (site GCACTCTCTAG)")
0.12
>>> valuemeasured("TGTACGCCTTGGGTTCTAACCTGTTGCCT (site TGTACGCCTAG)")
0.0173
>>> valuemeasured("GCGTGCCCTTGGGTTCTAACCTGTTGCCT (site GCGTGCCCTAG)")
0.82
>>> valuemeasured("ATATGAGCTTGGGTTCTAACCTGTTGCCG (site ATATGAGCTCG)")
0.307
>>> valuemeasured("CGTCAACCTTGGGTTCTAACCTGTTGCGT (site CGTAAACCTAC)")
0.186
>>> valuemeasured("TGGCTAGCTTGGGTTCTAACCTGTTGCCT (site TGGCTAGCTAG)")
0.242
>>> valuemeasured("CGGAGCCCTTGGGTTCTAACCTGTTGCCA (site CGGAACCCTCG)")
0.0889
>>> valuemeasured("TGTACCTCTTGGGTTCTAACCTGTTGCCT (site TGTCCCTCTAG)")
0.00782
>>> valuemeasured("AGCCTGCCTTGGGTTCTAACCTGTTGCCT (site AGCCTGACTAG)")
0.0617
>>> valuemeasured("TCTTGTCCTTGGGTTCTAACCTGTTGCGA (site TCTTGTCCTTC)")
0.253
>>> valuemeasured("GGTGCGTCTTGGGTTCTAACCTGTTGCCT (site TGTGCGTCTAG)")
0.119

###

protocolDescription: recombinant UMI read abundance after kanamycin selection (control-corrected) (log10(CPM+1)); higher = more efficient recombination; extreme values may be limits of the assay; sequences stand for … in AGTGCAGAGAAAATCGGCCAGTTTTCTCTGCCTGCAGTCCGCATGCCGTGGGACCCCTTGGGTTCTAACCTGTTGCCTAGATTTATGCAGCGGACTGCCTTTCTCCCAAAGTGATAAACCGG…AGGTTGGTTTCACT; site = the 11-nt donor
measurementType: recombinant UMI read abundance (log10)

>>> valuemeasured("AAACACGCATGGACCGGTTTTCCCGGTAATCCGTATTTGGG (site AAACACGCTCC)")
0.227
>>> valuemeasured("ACCGAGCCATGGACCGGTTTTCCCGGTAATCCGTATTTGCG (site ACCGAGCCTCG)")
0.0257
>>> valuemeasured("TTCTTGACATGGACCGGTTTTCCCGGTAATCCGTATTTGCT (site TGCTTGACTAG)")
0
>>> valuemeasured("ATTGTGCCATGGACCGGTTTTCCCGGTAATCCGTATTTGCA (site ATTGTGCCTTG)")
0.682
>>> valuemeasured("GCTTGCTCATGGACCGGTTTTCCCGGTAATCCGTATTTGAT (site GCTTGCTCTAT)")
1.46
>>> valuemeasured("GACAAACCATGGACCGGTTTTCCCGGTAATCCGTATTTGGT (site CACAAACCTAC)")
0

###

protocolDescription: recombinant barcode read abundance after kanamycin selection (control-corrected) (log10(CPM+1)); higher = more efficient recombination; sequences stand for … in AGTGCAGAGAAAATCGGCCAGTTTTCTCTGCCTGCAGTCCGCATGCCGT…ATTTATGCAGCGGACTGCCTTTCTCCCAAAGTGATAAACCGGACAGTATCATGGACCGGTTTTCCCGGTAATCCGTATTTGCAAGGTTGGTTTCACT; site = the 11-nt target
// classify(record): look up recombinant barcode read abundance (log10) in ranges zone 1 (below 0.06), zone 2 (0.06 to below 0.2), zone 3 (0.2 or more)

>>> classification("GGGCGGATTTGGGTTCTAACCTGTTGCGGAG [GGGCGGACTCC_LTGcore_TT_RTGcore_CT] (site GGGCGGACTCC) (LTG core: TT, RTG core: CT)")
"zone 2"
>>> classification("GGGAGCCTCTGGGTTCTAACCTGTTGCTGAG [GGGAGCCCTCA_LTGcore_TC_RTGcore_CT] (site GGGAGCCCTCA) (LTG core: TC, RTG core: CT)")
"zone 1"
>>> classification("ATGCTTTGATGGGTTCTAACCTGTTGCCTAG [ATGCTTTCTAG_LTGcore_GA_RTGcore_CT] (site ATGCTTTCTAG) (LTG core: GA, RTG core: CT)")
"zone 3"
>>> classification("TGATACCACTGGGTTCTAACCTGTTGCGTGT [TGATACCCTAC_LTGcore_AC_RTGcore_AC] (site TGATACCCTAC) (LTG core: AC, RTG core: AC)")
"zone 2"
>>> classification("GCGGGACCTTGGGTTCTAACCTGTTGCCTCT [GCGGGACCTAG_LTGcore_CT_RTGcore_AG] (site GCGGGACCTAG) (LTG core: CT, RTG core: AG)")
"zone 3"
>>> classification("GCGGGACCTTGGGTTCTAACCTGTTGCCTCC [GCGGGACCTAG_LTGcore_CT_RTGcore_GG] (site GCGGGACCTAG) (LTG core: CT, RTG core: GG)")
"zone 3"
>>> classification("AGTCTTACGTGGGTTCTAACCTGTTGCCACG [AGTCTTACTTG_LTGcore_CG_RTGcore_CG] (site AGTCTTACTTG) (LTG core: CG, RTG core: CG)")
"zone 3"
>>> classification("GAGGCCTTTTGGGTTCTAACCTGTTGCCAAA [GAGGCCTCTTG_LTGcore_TT_RTGcore_TT] (site GAGGCCTCTTG) (LTG core: TT, RTG core: TT)")
"zone 1"
>>> classification("GGGCGTGCTTGGGTTCTAACCTGTTGCCTGC [GGGCGTGCTAG_LTGcore_CT_RTGcore_GC] (site GGGCGTGCTAG) (LTG core: CT, RTG core: GC)")
"zone 3"
>>> classification("GAGTCCACTTGGGTTCTAACCTGTTGCGTAA [GAGTCCACTAC_LTGcore_CT_RTGcore_TT] (site GAGTCCACTAC) (LTG core: CT, RTG core: TT)")
"zone 1"
>>> classification("AAACACACTTGGGTTCTAACCTGTTGCCTAT [AAACACACTAG_LTGcore_CT_RTGcore_AT] (site AAACACACTAG) (LTG core: CT, RTG core: AT)")
"zone 3"
>>> classification("GAGTCCATGTGGGTTCTAACCTGTTGCGTCA [GAGTCCACTAC_LTGcore_TG_RTGcore_TG] (site GAGTCCACTAC) (LTG core: TG, RTG core: TG)")
"zone 2"
>>> classification("GAGGCCTCGTGGGTTCTAACCTGTTGCCAAG [GAGGCCTCTTG_LTGcore_CG_RTGcore_CT] (site GAGGCCTCTTG) (LTG core: CG, RTG core: CT)")
"zone 3"
>>> classification("TGTATTCAATGGGTTCTAACCTGTTGCCTAG [TGTATTCCTAG_LTGcore_AA_RTGcore_CT] (site TGTATTCCTAG) (LTG core: AA, RTG core: CT)")
"zone 2"
>>> classification("GAGTCCTGTTGGGTTCTAACCTGTTGCCTAC [GAGTCCTCTAG_LTGcore_GT_RTGcore_GT] (site GAGTCCTCTAG) (LTG core: GT, RTG core: GT)")
"zone 1"
>>> classification("AGTCTTACTTGGGTTCTAACCTGTTGCCAAT [AGTCTTACTTG_LTGcore_CT_RTGcore_AT] (site AGTCTTACTTG) (LTG core: CT, RTG core: AT)")
"zone 2"

###

protocolDescription: recombinant barcode read abundance after kanamycin selection (control-corrected) (log10(CPM+1)); higher = more efficient recombination; sequences stand for … in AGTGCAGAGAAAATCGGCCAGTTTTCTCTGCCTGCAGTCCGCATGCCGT…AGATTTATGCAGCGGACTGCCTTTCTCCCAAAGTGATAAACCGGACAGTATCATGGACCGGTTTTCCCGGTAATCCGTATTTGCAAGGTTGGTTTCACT; site = the 11-nt target
Label label 1 for high-side recombinant barcode read abundance (log10) (at or above 0.1) and label 0 for low-side recombinant barcode read abundance (log10) (below it).

>>> classification("GATGCTTCTTGGGTTCTAACCTGTTGCTT (site GATGCTTCTAA)")
"label 1"
>>> classification("GATTCACCTTGGGTTCTAACCTGTTGCCT (site AATTCACCTAG)")
"label 1"
>>> classification("GGTGAGACTTGGGTTCTAACCTGTTGCCA (site GGTGAGACTTG)")
"label 1"
>>> classification("GACGTACCTTGGGTTCTAACCTGTTGCCT (site GACGTACCTAG)")
"label 1"
>>> classification("GTCTCTACTTGGGTTCTAACCTGTTGCGG (site GTCGCTACTCC)")
"label 0"
>>> classification("TGTCGGACTTGGGTTCTAACCTGTTGCAG (site TGTCGGACTAT)")
"label 1"
>>> classification("ACGGGCTCTTGGGTTCTAACCTGTTGCTC (site ACGGGCTCTGA)")
"label 1"
>>> classification("GAATATTCTTGGGTTCTAACCTGTTGCCT (site GAGTATTCTAG)")
"label 1"
>>> classification("CTAAATCCTTGGGTTCTAACCTGTTGCAT (site CTAAGTCCTAT)")
"label 0"
>>> classification("TATTAGCCTTGGGTTCTAACCTGTTGCCT (site TATTAACCTAG)")
"label 1"
>>> classification("AATAGTGCTTGGGTTCTAACCTGTTGCCT (site AATAGTGCTAG)")
"label 1"
>>> classification("GACATCTCTTGGGTTCTAACCTGTTGCCT (site GACATCGCTAG)")
"label 0"
